# Experiment description: protease stability score; higher = more stable; yeast display proteolysis, trypsin and chymotrypsin;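 also: relative to predicted unfolded state with 0 unfolded-like and 1 meaning tenfold more protease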

{"columns": ["Entry sequence", "protease stability score"],
 "data": [
  ["SEDEEQSRHAFELWVRAYLTGNEEFLEKNADPNTRFIVGDKHIHGRELVFEFLKRIIDRRGMEIKDIKMRDMRVIGEKIEVDTTLHQHYNGVDFDHQIHFIMIKIDGKWKIKTIEIR", 1.43],
  ["DEREEMSRHMINLWNRHLETGDEDRISKLADPHVKVTNEDEEHVGRESAERFVRLMGFDHVHLHDIHIQGNKVISTVEIRIDGQTYQSDVVALKVDGKWKVKNVHIH", 0.711],
  ["DDETEHLEKSVRDLVTSIKTGNWEEFYKMFDPNMRVDINGQQYHGRENAVEMVRQLWERLGAKHVHLTEIRYYGDKLELIMHVHFDGRDKEEEYIAVKIDGRWLLTEVRFK", 2.08]
]}

====

# Experiment description: protease stability score; higher = more stable; yeast display proteolysis, trypsin and chymotrypsin;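 also: relative to predicted unfolded state with 0 unfolded-like and 1 meaning tenfold more protease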
Value type: protease stability score

{"columns": ["Entry sequence", "Value type", "Value measured"],
 "data": [
  ["HERERMLEVALRLFIETMRTGDEKITSELADPNVKIHIGDKTDHGRESFTNFFEEMGADHVNVHDVEVQGDKVKTDIRIQIGDKMVESILYVKKVNGRWLIRSIEIR", "protease stability score", 1.05],
  ["TELEKDAKEFFRIVIEAWLTGDEQKIEHLADPHVRLDINGVELHGWEELIRRLHDELHRYDYMQINVRRVEIQGEKIHVDGELELRFDGKIYRHEVEINILVVNGKNKEQKFVKK", "protease stability score", 0.243],
  ["SEEEKRAKKLIEIFMESIETGDWKEIHRMMDPTTRLEQGDYEHHGRDEIRELWLQELLDLGVERIRVKVHHVDVIDGKAHVDVTIHFNGVTQRRHYVIVKIDGRWMIKLVIIR", "protease stability score", 1.81],
  ["SEDEKEMKQALEHWLELLTTGNEEENEKLADPDVRLNFNGKEFHGWKLYREFLSRIKNATIRIREVRVVNGKVTVISELRIGDKVFEVQIHLKKVNGKWYVEEEHIH", "protease stability score", 1.61],
  ["TEDERDMQEFYERLIHAIHTGDWREIRRQFDPNVLLNFNGKEIHGREQALRLMRELLHRADVIDDTKTKDLKFYNGRVELHIHEQGQINGQHFRSDVMLIVEKVNGRWYMKSYQID", "protease stability score", 1.37],
  ["DDHKKLVDEMIRIVLEELKTGNEETFNKLADPNVKVEWNGVDNHGREEVEEWWREYREVLGVDVIHIELKHVDPQGDKARIDGIIVETQGEKHHSFRAHIIIVVVNGRMHSIHERRR", "protease stability score", 0.881],
  ["DETTEKNERYIERLHHYLETGNEEELLHLFDPNTKFVQGDKEIIGREEVRHWEEEKRRKMGIKHWDFEFRRVRIIGEKLIIHGKEIINFENHRLERTVEIHLLLIDGRVKEVVYHVN", "protease stability score", 1.2],
  ["SEEEESSKYAIELLRKVVETGDWRLIQRLADPHAKIEQGDKRLHGRETVTKHLIELGIDHIKFRDSRVQGDKVELDGEVDVNGQHRDTHILIEKIDGVWVWRRFEIK", "protease stability score", 0.97],
  ["DELEKLLKLAMEMSLKLFETGDEESLHRLIDPHVRMEIVQGDKFIELHGREDVVRAMKEFRKKFPNLKVELEDHDIQGDKVIWHSVIHVGDKELELIIISLKFDGRWVLESVELKHR", "protease stability score", 1.4],
  ["SSEEKRDKDAVELFLKILHTGNFELFRELFDPNTRWEYGDKELIGMELIVTWWFEFVRDRGVEVELHRIDRINGRVVLETTMRIGDKQTSTHVHVIVINGVFHEVRFRFH", "protease stability score", 1.29],
  ["HEEERDAEKLIRIWYHYLVTGDEERLLELLDPSTRMDINGVTHHGMEIVRDALHDLLRHLGVKVFRDIHIESVEIQGEKVITRMHVLFEVDGQELRIDSILFSHKINGKWLIEMHSKK", "protease stability score", 1.23]
]}

====

# Experiment description: protease stability score; higher = more stable; yeast display proteolysis, trypsin and chymotrypsin;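 also: relative to predicted unfolded state with 0 unfolded-like and 1 meaning tenfold more protease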
Readings of protease stability score for the listed sequences
Value type: protease stability score

{"columns": ["Entry sequence", "Value measured"],
 "data": [
  ["DEEDKDLHRWLEESTHAMLTGDEQHLTELADPNVKFNFDGREIHGREEYVKFMHRWIRHAGFKHIHVETKDVRVQGNKLHVDTHSIHDYNGRRVRTDTRVFVEKINGRWRLHSIEIE", 1.4],
  ["SEDEEEISEFTRMHLEDIITGDEDTLRRLVDPNVRIFIDGKHIHGMETYVKRLDENFKHLGVDHVEIRIHQIRLINGRARVDGVLIIEIGDKREERRTFLILLKVNGRWVMEEYRIH", 1.07],
  ["DEEEKWFRESEKLIEELIHTGNEEEFRKLADPNMRLDFNGVEVHGRHHFFREIRHTSEKFGVDKVEVRLKDFKVFNGVAHYHGEIIFNGRTIEHEIIAEKVNGRWRLQFLIFR", 1.61],
  ["DEDMDISKHWAELWMKLEKTGDEEELRKLMDPHARIDFNGVDIHGMEFWLELLKREKDKFKNVKITLEEFRIYGDYVHFHVIIHQGDYHLRIEITIIVVNGRHKELIIRIK", -0.059],
  ["SEEEDHIRRAIERFSKDQETGDEDSIRELLDPHVRMHVDGQELIGRDLILKFWSELRVHHWEMHSVRVVGDYVDFDVTLDMRVGDKSHRIKATLIILKIDGRWILKLVIID", 1.19],
  ["TEDDELLHRAERLVYHSLLTGDFHTLKHLMDPHVRTHIDGRDTHGRDKATNFFIKYWEDLGVKHITYEDMHVHFFEGHLTVLLIVKLNIDGRERRNVYIFIFMKIDGKWLNHEVHIHIN", 0.651],
  ["DEREKRLKDIALIVMHLLLTGDEERFHELFDPDTKMTLIFNGQIETSHGMEEVRELLRYWLEEIRIEHYHLTEIHLIGDKTHVHGELVGEVNGKRFKTHIHITIVVIDGKVHSVEFELR", 1.77],
  ["DEKHELNEKALSEFLKIVHTGDERLVREMMDPHVRVHINGRDHHGMDDAVELMKFIKNMTVILTDKKIQGDKLEVHGIWIYNGVREETEIISEKVDGRWVIREVRHD", 1.07],
  ["SEYEEWSERHLKHWEDARDTGDFDSETDLLDPHMRFQLIIGEKRVRFHGMEVLIEHVLRFKNATVREQKSHVEVIDGRIYIRLEGRYDVNGKDFDVEIIIISEKVNGRWILRYIEIRIH", 1.55],
  ["DEHDRDARRFTDILLEAFMTGDEDLSHKMLDPNMRLHINGKIHHGRELATELLHEMRIERLVIEDYRIHYQGEKVHVTLHGRLHGRVDGKEHNSEVNIFINIEKVNGKWIVRSFTLKIH", 1.47],
  ["TEEEHLMKEMLDLWVEALMTGDEKLLSELMDPNTRFHLRYGDFLQDRHGRHIINHIIRHWRFHVFKIEDTKVFNGRAIADTHLDVEIDGRRVRTRTKVDLVTINGKIERLDLEID", 0.902],
  ["DEHEEALEEFLTEMIENIKTGDWHSELKLMDPHVRILFDGVIFHGREFFFQWLRHLLQRADHVNFTIDDKKYQGDKMVIETTFHLIINGQRIERYTVLLARKVNGRWYIEEVRLH", 2.33],
  ["SEEEEEHEELMRLMESTVRTGDFELFEKLADPNVRINIDGKDVHGREEFLEHWVRRWRDLGVNHLRIEHRRVYNGVIIIKVKILVNGREITLHIEARKVDGRWSVHKVEQH", 2.25],
  ["DEEEKHARKVFRELEESLRTGDEHSMRRLLDPHTKIIINGQEHVGMEHADKFVHELRLKDSKIRHLEMHVIDGQAHLKMDVDVEGNFNGRDTRDRVTEIWIVDKINGRWLVSEVRFVKR", 1.13],
  ["SEEQENAERILRMWIHALETGDEHTQKRLLDPNVRDEVNGVEFHGRERAVKLMNDLHEELRIKDWIPRDIHLVNGVLILHVEVRLEVDGQSRNHEVIIVIKKVNGRWFIHRIHVR", 1.45],
  ["DETKEHVHNWMELVVHWYETGDEEEILKNADPNVRTIFNGVDYHGWEHLEEILKKIRHFFKNARVEIERIEIQGDKLILDVNVEINGQRDTLHIHVKVVDGVMKNLEIRHG", 1.59],
  ["DEEERFSEEALRRIWHALETGDERIQEDLADPNVRIDVGEKSYHGREKWSEMIRHMRLHDIKIHHVIVINGRMRFHGRMDGNIDGKRIDTEVEIHFEKVDGKWLVRKIRIH", 2.25],
  ["DEDMELVLKWVHEFAEMFETGNEHELLRMLDPHVRLEYGEKEIHGREDITRFWEEKIRKLGIKHIRVHIRDARIQGEKLHLDTELKLDYNGKTDHERYIIIIIKINGKWSIKSFQVE", 1.55],
  ["DDTLRDLFHLIELFHKALKTGDEQKMRENLDPHAKFDWDGRDYVGMEEVVKYVVEARIESTFHIHSVRKIGNKLDVDGTFSLEVDYNGKKEDIHSRQHHFIYKVDGQWIIKRIIIK", 0.537],
  ["DEETEEERKITELSLKAYKTGDEDTLSSLIDPHARFIYNGRHHHGRETASHILRRETERLGVKHIHLKDTEIDDVNGVVDMRIHMMVHYGNKTTELIIILRITKFNGRWIIETIEVRVR", 0.691],
  ["SEDEEESEKFLRRLLQAYRTGDEDKLNELIDPNARMDVNGVDNHGWEEISRLLKELRVKHLILHDQKNYDGRAEMDTIVDGRFNGRDDRRKSIIIVIKIDGRWIIESLSIG", 1.1],
  ["DEEEERRRHLIDVLLRLWHTGDEESFTNLADPHVRIHVGDKIFHGREAASRWMHNVREHWRLHHERDHDVKIQGEKVVRDGHVDIEFNGVRVRTRVEIILTVVNGQIKLIEIRIL", 1.26]
]}
